This collection of values is drawn from PubChem BioAssay AID2060342.

# key: entry, value: pIC50
tested on: 171881-019-R-J1-PDC multicell spheroid viability; test: Anticancer human tumor 171881-019-R-J1-PDC patient-derived invasive breast carcinoma cell line growth inhibition [IpAb]; conditions: curve of first compound; second compound 0.01 µM
// pIC50: -log10(molar conc.)

Cn1nccc1Nc1nccc(-c2ccn(C(CO)c3ccc(Cl)c(F)c3)c(=O)c2)n1 (stereo not given) + CCN1CCN(Cc2ccc(Nc3ncc(F)c(-c4cc(F)c5nc(C)n(C(C)C)c5c4)n3)nc2)CC1
6.11

Consider C=CC(=O)N1CCN(c2nc(=O)n(-c3c(C)ccnc3C(C)C)c3nc(-c4c(O)cccc4F)c(F)cc23)C(C)C1 (stereo not given) + CCN1CCN(Cc2ccc(Nc3ncc(F)c(-c4cc(F)c5nc(C)n(C(C)C)c5c4)n3)nc2)CC1 . Its measured pIC50 is 5.08

Reported pIC50 of Cn1ncc(Cl)c1-c1cc(C(=O)NC(CN)Cc2cccc(F)c2)sc1Cl (stereo not given) + CCN1CCN(Cc2ccc(Nc3ncc(F)c(-c4cc(F)c5nc(C)n(C(C)C)c5c4)n3)nc2)CC1 : 6.74

Entry Cc1nc(NC(=O)N2CCCC2C(N)=O)sc1-c1ccnc(C(C)(C)C(F)(F)F)c1 (stereo not given) + CCN1CCN(Cc2ccc(Nc3ncc(F)c(-c4cc(F)c5nc(C)n(C(C)C)c5c4)n3)nc2)CC1 — recorded pIC50 = 6.11

Lab note: CC(C)(C)c1cnc(CSc2cnc(NC(=O)C3CCNCC3)s2)o1 + CCN1CCN(Cc2ccc(Nc3ncc(F)c(-c4cc(F)c5nc(C)n(C(C)C)c5c4)n3)nc2)CC1 gave pIC50 of 6.76

###

tested on: 171881-019-R-J1-PDC multicell spheroid viability; assay: Anticancer human tumor 171881-019-R-J1-PDC cell line growth inhibition [IpAb]; settings: second compound 0.01 µM; first compound 10 µM; stronger effect = lower value;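 also: spheroids exposed to the agents for seven days before readout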
We label by threshold. Values of viability, T/C strictly beneath 20% are T. Values of 20% and up are F.

Bench note: check whether Cc1nc(NC(=O)N2CCCC2C(N)=O)sc1-c1ccnc(C(C)(C)C(F)(F)F)c1 (configuration not stated) + CCN1CCN(Cc2ccc(Nc3ncc(F)c(-c4cc(F)c5nc(C)n(C(C)C)c5c4)n3)nc2)CC1 shows viability, T/C below 20%
T

Determine whether this compound shows viability, T/C lower than 20% (ties excluded): C=CC(=O)N1CCN(c2nc(=O)n(-c3c(C)ccnc3C(C)C)c3nc(-c4c(O)cccc4F)c(F)cc23)C(C)C1 (configuration not stated) + CCN1CCN(Cc2ccc(Nc3ncc(F)c(-c4cc(F)c5nc(C)n(C(C)C)c5c4)n3)nc2)CC1
F

For this compound, is viability, T/C lower than 20%? C=CCn1c(=O)c2cnc(Nc3ccc(N4CCN(C)CC4)cc3)nc2n1-c1cccc(C(C)(C)O)n1 + CCN1CCN(Cc2ccc(Nc3ncc(F)c(-c4cc(F)c5nc(C)n(C(C)C)c5c4)n3)nc2)CC1
F

Check if viability, T/C falls below 20% for CC1(C)CCC(CN2CCN(c3ccc(C(=O)NS(=O)(=O)c4ccc(NCC5CCOCC5)c([N+](=O)[O-])c4)c(Oc4cnc5[nH]ccc5c4)c3)CC2)=C(c2ccc(Cl)cc2)C1 + CCN1CCN(Cc2ccc(Nc3ncc(F)c(-c4cc(F)c5nc(C)n(C(C)C)c5c4)n3)nc2)CC1 .
T

Regarding Cn1ncc(Cl)c1-c1cc(C(=O)NC(CN)Cc2cccc(F)c2)sc1Cl (configuration not stated) + CCN1CCN(Cc2ccc(Nc3ncc(F)c(-c4cc(F)c5nc(C)n(C(C)C)c5c4)n3)nc2)CC1 , kindly confirm whether its viability, T/C is beneath 20%.
T

Decide: viability, T/C of CCCS(=O)(=O)Nc1ccc(F)c(C(=O)c2c[nH]c3ncc(-c4ccc(Cl)cc4)cc23)c1F + CCN1CCN(Cc2ccc(Nc3ncc(F)c(-c4cc(F)c5nc(C)n(C(C)C)c5c4)n3)nc2)CC1 strictly below 20%?
F

Given the entry Cn1nccc1Nc1nccc(-c2ccn(C(CO)c3ccc(Cl)c(F)c3)c(=O)c2)n1 (configuration not stated) + CCN1CCN(Cc2ccc(Nc3ncc(F)c(-c4cc(F)c5nc(C)n(C(C)C)c5c4)n3)nc2)CC1 , would its reported viability, T/C be below 20%?
T
